Protein target, amino acids: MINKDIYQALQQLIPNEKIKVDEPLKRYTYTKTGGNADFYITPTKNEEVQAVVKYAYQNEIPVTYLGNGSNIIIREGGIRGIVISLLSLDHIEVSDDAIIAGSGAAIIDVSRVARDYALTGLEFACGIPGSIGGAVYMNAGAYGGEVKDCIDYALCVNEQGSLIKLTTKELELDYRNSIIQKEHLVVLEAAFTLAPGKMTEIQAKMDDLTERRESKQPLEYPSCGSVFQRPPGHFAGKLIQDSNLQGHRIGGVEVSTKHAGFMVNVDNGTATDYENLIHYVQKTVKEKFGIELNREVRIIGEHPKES
pIC50: −log10 of the molar value.
// label = criterion met if pIC50 is not less than 5, otherwise criterion not met

- record.smiles: "O=C1C(Cc2ccccc2Cl)C(=O)N(c2ccc(Cl)cc2)N1c1ccc(Cl)cc1"
  class.label: "criterion not met"

input: I'd appreciate it if you could say whether "O=C(CCC1C(=O)N(c2ccc(Cl)cc2)N(c2ccc(Cl)cc2)C1=O)c1ccc(F)cc1" has pIC50 at least equal to 5.
output: criterion not met

input: Again, but for "O=C(CC1(CC(=O)c2ccc(F)cc2F)C(=O)N(c2ccc(Cl)cc2)N(c2ccc(Cl)cc2)C1=O)c1ccc(F)cc1F"
output: criterion met

input: Again, but for "O=C1C(Cc2ccc(Cl)cc2Cl)C(=O)N(c2ccc(Cl)cc2)N1c1ccc(Cl)cc1"
output: criterion not met

* * *

# procedure.summary: Minimum inhibitory concentration against cell wall biosynthesis of methicillin-susceptible Coagulase negative staphylococcus GC 646 (MSCNS)
# Format: functional
Recorded measurements of MIC, one per entry

These solved cases illustrate the format of a correct answer.
- record.smiles: "O=C1C(Cc2cccc(C(F)(F)F)c2)C(=O)N(c2ccc(Cl)cc2)N1c1ccc(Cl)cc1"
  endpoint.name: "MIC"
  value.measured: "> 200 µM"
- record.smiles: "O=C1C(CCCCCc2ccccc2)C(=O)N(c2ccc(Cl)cc2)N1c1ccc(Cl)cc1"
  endpoint.name: "MIC"
  value.measured: "> 200 µM"

Lab note: next compound to report on.
input: Can you share its MIC? I mean this compound: "CC1(CCCCCCc2ccccc2)C(=O)N(c2ccc(Cl)cc2)N(c2ccc(Cl)cc2)C1=O"
output: > 200 µM

* * *

# Tested on: Streptococcus pneumoniae
# procedure.summary: Minimum inhibitory concentration against cell wall biosynthesis of penicillin resistant Streptococcus pneumoniae GC 1894 (PRSP)
# Format: functional
endpoint.name: MIC (µM)
Use µM as the unit, but write only the number.

- record.smiles: "O=C1C(Cc2cccc(C(F)(F)F)c2)C(=O)N(c2ccc(Cl)cc2)N1c1ccc(Cl)cc1"
  endpoint.name: "MIC"
  value.measured: 50
- record.smiles: "O=C1N(c2ccc(Cl)cc2)N(c2ccc(Cl)cc2)C(=O)C1(CCOCc1ccccc1)CCOCc1ccccc1"
  endpoint.name: "MIC"
  value.measured: 12.5
- record.smiles: "O=C1C(Cc2ccccc2Cl)C(=O)N(c2ccc(Cl)cc2)N1c1ccc(Cl)cc1"
  endpoint.name: "MIC"
  value.measured: 12.5

input: Can you share its MIC? I mean this molecule: "O=C(CC1(CC(=O)c2ccc(F)cc2F)C(=O)N(c2ccc(Cl)cc2)N(c2ccc(Cl)cc2)C1=O)c1ccc(F)cc1F"
output: 3.12

input: Again, but for "CCN(CCC1C(=O)N(c2ccc(Cl)cc2)N(c2ccc(Cl)cc2)C1=O)Cc1ccccc1"
output: 100

input: Again, but for "O=C1C(Cc2cc(C(F)(F)F)cc(C(F)(F)F)c2)C(=O)N(c2ccc(Cl)cc2)N1c1ccc(Cl)cc1"
output: 6.25

* * *

Recorded measurements of MIC, one per entry
# procedure.summary: Minimum inhibitory concentration against cell wall biosynthesis of methicillin-susceptible Coagulase negative staphylococcus GC 646 (MSCNS)
# Type: functional

- record.smiles: "O=C1C(Cc2ccccc2)C(=O)N(c2ccc(Cl)cc2)N1c1ccc(Cl)cc1"
  MIC: "> 200 µM"
- record.smiles: "O=C1C(Cc2ccccc2Cl)C(=O)N(c2ccc(Cl)cc2)N1c1ccc(Cl)cc1"
  MIC: "> 200 µM"

Lab note: next molecule to report on.
input: Can you share its MIC? I mean this molecule: "CC1(CC(=O)c2ccc(F)cc2F)C(=O)N(c2ccc(Cl)cc2)N(c2ccc(Cl)cc2)C1=O"
output: > 200 µM

* * *

Recorded measurements of IC50, one per entry
# assayed.system: UDP-N-acetylenolpyruvoylglucosamine reductase (Escherichia coli K-12, UniProt P08373)
# Sequence (P08373 whole entry): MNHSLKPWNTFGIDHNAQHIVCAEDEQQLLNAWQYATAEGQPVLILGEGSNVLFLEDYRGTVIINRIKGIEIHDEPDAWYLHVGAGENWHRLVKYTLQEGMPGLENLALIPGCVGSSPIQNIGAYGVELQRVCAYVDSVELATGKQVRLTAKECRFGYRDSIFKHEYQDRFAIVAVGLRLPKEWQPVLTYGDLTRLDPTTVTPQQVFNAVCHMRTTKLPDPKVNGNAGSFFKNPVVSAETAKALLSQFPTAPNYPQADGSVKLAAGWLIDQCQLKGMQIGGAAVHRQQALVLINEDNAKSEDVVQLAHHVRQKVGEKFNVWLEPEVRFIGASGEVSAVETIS
# procedure.summary: Inhibitory concentration against MurB enzyme in Escherichia coli
Use µM as the unit, but write only the number.

- record.smiles: "CC1(CC(=O)c2ccc(F)cc2F)C(=O)N(c2ccc(Cl)cc2)N(c2ccc(Cl)cc2)C1=O"
  value.measured: 49
- record.smiles: "O=C1C(CCCCCc2ccccc2)C(=O)N(c2ccc(Cl)cc2)N1c1ccc(Cl)cc1"
  value.measured: 10
- record.smiles: "CCCCCCCC1C(=O)N(c2ccc(Cl)cc2)N(c2ccc(Cl)cc2)C1=O"
  value.measured: 42
- record.smiles: "O=C(CCC1C(=O)N(c2ccc(Cl)cc2)N(c2ccc(Cl)cc2)C1=O)c1ccc(F)cc1"
  value.measured: 13
- record.smiles: "O=C1N(c2ccc(Cl)cc2)N(c2ccc(Cl)cc2)C(=O)C1(CCCCCCc1ccccc1)CCCCCCc1ccccc1"
  value.measured: 7.2

input: Can you share its IC50? I mean this compound: "O=C1C(CCc2ccccc2)C(=O)N(c2ccc(Cl)cc2)N1c1ccc(Cl)cc1"
output: 35

input: Again, but for "N#Cc1ccccc1-c1ccc(CC2C(=O)N(c3ccc(Cl)cc3)N(c3ccc(Cl)cc3)C2=O)cc1"
output: 11

* * *

# assayed.system: UDP-N-acetylenolpyruvoylglucosamine reductase (Staphylococcus aureus)
# Sequence (P61431 whole entry): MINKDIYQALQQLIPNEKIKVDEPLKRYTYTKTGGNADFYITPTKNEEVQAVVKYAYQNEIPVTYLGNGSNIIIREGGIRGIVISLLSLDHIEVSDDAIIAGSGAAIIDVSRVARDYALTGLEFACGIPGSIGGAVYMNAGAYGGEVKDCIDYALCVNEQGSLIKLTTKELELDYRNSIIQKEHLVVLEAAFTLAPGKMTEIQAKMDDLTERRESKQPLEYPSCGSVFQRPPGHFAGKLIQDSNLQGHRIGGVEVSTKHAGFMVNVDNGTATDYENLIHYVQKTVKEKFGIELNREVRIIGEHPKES
# procedure.summary: Inhibitory concentration against MurB enzyme in Staphylococcus aureus
endpoint.name: pIC50
The value called pIC50 is obtained by taking minus log10 of the concentration in mol/L.

These solved cases illustrate the format of a correct answer.
- record.smiles: "O=C1C(CCCCCCc2ccccc2)C(=O)N(c2ccc(Cl)cc2)N1c1ccc(Cl)cc1"
  pIC50: 4.92
- record.smiles: "O=C1N(c2ccc(Cl)cc2)N(c2ccc(Cl)cc2)C(=O)C1(CCCCCCc1ccccc1)CCCCCCc1ccccc1"
  pIC50: 5.09

Lab note: next molecule to report on.
input: Can you share its pIC50? I mean this molecule: "O=C1N(c2ccc(Cl)cc2)N(c2ccc(Cl)cc2)C(=O)C1(CCOCc1ccccc1)CCOCc1ccccc1"
output: 5.12

* * *

Recorded measurements of MIC, one per entry
# System: Streptococcus pneumoniae
# procedure.summary: Minimum inhibitory concentration against cell wall biosynthesis of penicillin resistant Streptococcus pneumoniae GC 1894 (PRSP)
# Format: functional
Use µM as the unit, but write only the number.

- record.smiles: "CCN(CC)CCC1C(=O)N(c2ccc(Cl)cc2)N(c2ccc(Cl)cc2)C1=O"
  MIC, µM: 100
- record.smiles: "COc1cccc(CC2C(=O)N(c3ccc(Cl)cc3)N(c3ccc(Cl)cc3)C2=O)c1"
  MIC, µM: 200
- record.smiles: "O=C1C(CCCCc2ccccc2)C(=O)N(c2ccc(Cl)cc2)N1c1ccc(Cl)cc1"
  MIC, µM: 25
- record.smiles: "O=C1C(CCSCc2ccccc2)C(=O)N(c2ccc(Cl)cc2)N1c1ccc(Cl)cc1"
  MIC, µM: 6.25
- record.smiles: "CCCCCCCC1C(=O)N(c2ccc(Cl)cc2)N(c2ccc(Cl)cc2)C1=O"
  MIC, µM: 6.25

input: Can you share its MIC? I mean this compound: "O=C(CCCC1C(=O)N(c2ccc(Cl)cc2)N(c2ccc(Cl)cc2)C1=O)c1ccc(F)cc1"
output: 12.5

input: Again, but for "O=C1C(Cc2ccc(Cl)cc2Cl)C(=O)N(c2ccc(Cl)cc2)N1c1ccc(Cl)cc1"
output: 12.5

input: Again, but for "O=C1C(CCCCCc2ccccc2)C(=O)N(c2ccc(Cl)cc2)N1c1ccc(Cl)cc1"
output: 25

input: Again, but for "O=C1C(CCCCCCc2ccccc2)C(=O)N(c2ccc(Cl)cc2)N1c1ccc(Cl)cc1"
output: 6.25

input: Again, but for "O=C1N(c2ccc(Cl)cc2)N(c2ccc(Cl)cc2)C(=O)C1(CCCCCCc1ccccc1)CCCCCCc1ccccc1"
output: 100

input: Again, but for "O=C1C(CCc2ccccc2)C(=O)N(c2ccc(Cl)cc2)N1c1ccc(Cl)cc1"
output: 50

input: Again, but for "O=C(CCC1C(=O)N(c2ccc(Cl)cc2)N(c2ccc(Cl)cc2)C1=O)c1ccc(F)cc1"
output: 50
